Please provide measured pKi for the entries that follow.
Biological target: human recombinant DAT (Homo sapiens)
Sequence (Q01959 whole entry): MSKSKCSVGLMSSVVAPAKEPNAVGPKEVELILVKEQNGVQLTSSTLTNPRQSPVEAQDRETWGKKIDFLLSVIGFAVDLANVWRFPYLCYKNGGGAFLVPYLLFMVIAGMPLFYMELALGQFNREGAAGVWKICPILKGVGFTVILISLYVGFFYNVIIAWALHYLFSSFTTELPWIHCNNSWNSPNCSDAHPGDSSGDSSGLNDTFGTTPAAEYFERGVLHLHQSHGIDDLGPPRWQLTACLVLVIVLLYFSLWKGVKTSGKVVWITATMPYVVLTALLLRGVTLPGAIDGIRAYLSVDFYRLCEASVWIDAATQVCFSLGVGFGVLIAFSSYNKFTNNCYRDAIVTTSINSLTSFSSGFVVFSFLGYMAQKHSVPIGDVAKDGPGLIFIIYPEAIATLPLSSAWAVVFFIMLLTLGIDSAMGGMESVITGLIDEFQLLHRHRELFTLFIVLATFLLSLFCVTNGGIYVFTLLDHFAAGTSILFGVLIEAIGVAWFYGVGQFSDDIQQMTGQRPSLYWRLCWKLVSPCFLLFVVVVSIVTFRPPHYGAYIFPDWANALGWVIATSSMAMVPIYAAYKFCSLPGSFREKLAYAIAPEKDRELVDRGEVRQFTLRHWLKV
Assay: DAT radioligand binding assay (scintillation proximity, [3H]WIN-35428)
pKi: −log10 of the molar value.

Query string: Item CC(C)(C)NCC(O)C1(c2ccc(Cl)c(Cl)c2)CCC1 (stereo not shown) [Compound 20] : provide pKi
Result string: 7.00 to 7.96

Query string: Item CC1(NCC(O)C2(c3ccc(Cl)c(Cl)c3)CCC2)CCC1 (stereo not shown) [Compound 38] : provide pKi
Result string: > 8.00

Query string: Item Clc1ccc(C2(CN3CCCCC3)CCC2)cc1Cl [Compound 3] : provide pKi
Result string: 7.00 to 7.96

Query string: Item OC(CN1CCCCC1)C1(c2ccc3ccccc3c2)CCC1 (stereo not shown) [Compound 15] : provide pKi
Result string: 7.00 to 7.96

Just for reference, patent US20150057443A1 is where these values come from.
